All figures here come from the supplement of paper PMC11061612.

Test system: COR-L311 (Small Cell Lung Carcinoma)
Procedure text: combination Emax (second highest fraction inhibited in the dose matrix, 72 h); higher = more inhibition; extreme values may be limits of the assay
Endpoint name: combination Emax

>>> recorded_result("CN(CCO)CC[C@H](CSc1ccccc1)Nc1ccc(S(=O)(=O)NC(=O)c2ccc(N3CCC([C@@H](O)c4ccccc4-c4ccc(Cl)cc4)CC3)cc2)cc1S(=O)(=O)C(F)(F)F [AZD4320] + C[C@@H]1COCCN1C2=NC(=NC(=C2)C3(CC3)[S@](=N)(=O)C)C4=C5C=CNC5=NC=C4 [AZD6738] (first compound max 1 µM, 7x7, partner max 10 µM)")
1
>>> recorded_result("NC1(C(=O)N[C@@H](CCO)c2ccc(Cl)cc2)CCN(c2ncnc3[nH]ccc23)CC1 [Capivasertib] + CC(=O)c1c(C)c2cnc(Nc3ccc(N4CCNCC4)cn3)nc2n(C2CCCC2)c1=O [Palbociclib] (first compound max 10 µM, 7x7, partner max 10 µM)")
0.68
>>> recorded_result("COc1nnc2ccc(N3CCC(c4ccc(OCCN5CCN(C)C(=O)[C@H]5C)cc4)CC3)nn12 [AZD5153] + C[C@@H]1COCCN1C2=NC(=NC(=C2)C3(CC3)[S@](=N)(=O)C)C4=C5C=CNC5=NC=C4 [AZD6738] (first compound max 1 µM, 7x7, partner max 10 µM)")
0.95
>>> recorded_result("COc1nnc2ccc(N3CCC(c4ccc(OCCN5CCN(C)C(=O)[C@H]5C)cc4)CC3)nn12 [AZD5153] + CN(CC[C@H](CSC1=CC=CC=C1)NC2=C(C=C(C=C2)S(=O)(=O)NC(=O)C3=CC=C(C=C3)N4CCC(CC4)[C@H](C5=CC=CC=C5C6=CC=C(C=C6)Cl)O)S(=O)(=O)C(F)(F)F)CCO [AZD4320] (first compound max 1 µM, 7x7, partner max 1 µM)")
1
>>> recorded_result("CN(CCO)CC[C@H](CSc1ccccc1)Nc1ccc(S(=O)(=O)NC(=O)c2ccc(N3CCC([C@@H](O)c4ccccc4-c4ccc(Cl)cc4)CC3)cc2)cc1S(=O)(=O)C(F)(F)F [AZD4320] + CN(C)CCCOc1ccc(-c2ccc3ncc4c(c3c2)n(C2CCOCC2)c(=O)n4C)cn1 [AZD0156] (first compound max 1 µM, 7x7, partner max 1 µM)")
1
>>> recorded_result("Cc1c2c(nn1C)CSCc1cc(n(C)n1)CSc1cc(c3ccccc3c1)OCCCc1c(C(=O)O)n(C)c3c-2c(Cl)ccc13 [AZD5991] + C=CCn1c(=O)c2cnc(Nc3ccc(N4CCN(C)CC4)cc3)nc2n1-c1cccc(C(C)(C)O)n1 [AZD1775] (first compound max 1 µM, partner max 1 µM)")
0.812
